Test: in vivo
Details: male, IL-13tg, mouse, lung cryosections, oral, 250 mg/kg
reported_metric: concentration at 4 h (ng/g)
Hi! Could you send only the number? It should be in ng/g, unit omitted.

Task item: // concentration at 4 h lookup, key: `C[C@H]1COC2(CCN(c3nc(=O)c4cc(C(F)(F)F)cc([N+](=O)[O-])c4s3)CC2)O1`
Reply: 1380

---

Assay: in vivo
Conditions: both, IL-13tg, mouse, lung (cryosections), oral, 250 mg/kg
reported_metric: concentration at 2 h (ng/g)
Hi! Could you send only the number? It should be in ng/g, unit omitted.

Task item: // concentration at 2 h lookup, key: `C[C@H]1COC2(CCN(c3nc(=O)c4cc(C(F)(F)F)cc([N+](=O)[O-])c4s3)CC2)O1`
Reply: 910

---

Experiment: In vitro permeability assay in Caco-2 monolayers
Conditions: human, Caco-2, Mean Papp, Caco-2, 40 µg/mL, direction BA, n=3
reported_metric: Papp at 120 min, 40 µg/mL (×10⁻⁶ cm/s)
Hi! Could you send only the number? It should be in ×10⁻⁶ cm/s, unit omitted.

Task item: // Papp at 120 min, 40 µg/mL lookup, key: NC(=O)c1cnccn1 [PZA, pyrazinamide]
Reply: 35

---

Experiment: In vitro permeability assay in Caco-2 monolayers
Conditions: human, Caco-2
reported_metric: efflux ratio at 120 min, 1 µg/mL

Task item: // efflux ratio at 120 min, 1 µg/mL lookup, key: C[C@H]1COC2(CCN(c3nc(=O)c4cc(C(F)(F)F)cc([N+](=O)[O-])c4s3)CC2)O1 [BTZ-043]
Reply: 0.73

---

Assay: LCM coupled LC-MS/MS of necrotic granulomas and non-necrotic regions
Assay type: in vivo, IL-13tg mice
Details: IL-13tg, mouse, TB granulomas laser-dissected from lung cryosections, oral, 250 mg/kg, 4 h after administration, assumed tissue density 1 g/mL; read-out: mean BTZ-043 concentration within TB granulomas
reported_metric: concentration at 4 h (ng/mL)
Hi! Could you send only the number? It should be in ng/mL, unit omitted.

Task item: // concentration at 4 h lookup, key: `C[C@H]1COC2(CCN(c3nc(=O)c4cc(C(F)(F)F)cc([N+](=O)[O-])c4s3)CC2)O1`
Reply: 570

---

Assay: in vivo
Conditions: male, IL-13tg, mouse, lung cryosections, oral, 250 mg/kg
reported_metric: concentration at 0.5 h

Task item: // concentration at 0.5 h lookup, key: C[C@H]1COC2(CCN(c3nc(=O)c4cc(C(F)(F)F)cc([N+](=O)[O-])c4s3)CC2)O1 [BTZ-043]
Reply: 1280 ng/g

---

Assay: LCM coupled LC-MS/MS of necrotic granulomas and non-necrotic regions
Type: in vivo, IL-13tg mice
Conditions: IL-13tg, mouse, lung, whole cryosection, oral, 250 mg/kg, whole cryosection from OT207 (QC, internal control), 4h post administration; read-out: ng/mg lung tissue, technical replicate 2
reported_metric: concentration at 4 h (ng/g)
Hi! Could you send only the number? It should be in ng/g, unit omitted.

Task item: // concentration at 4 h lookup, key: C[C@H]1COC2(CCN(c3nc(=O)c4cc(C(F)(F)F)cc([N+](=O)[O-])c4s3)CC2)O1 [BTZ-043]
Reply: 846

Values compiled from paper PMC11742723.
